Collected IC50 values appear next to each entry.
measured-on: rat maltase (partially purified alpha-glucosidase from intestinal rat powder)
test-method-notes: Intestinal alpha-glucosidase assay, maltose substrate (Glucose GO Kit)

Provide IC50, recorded with rat maltase (partially purified alpha-glucosidase from intestinal rat powder), of COc1cc(NCCc2ccc(CCN3C[C@H](O)[C@@H](O)[C@H](O)[C@H]3CO)cc2)cc(C2=COCCO2)c1 [Compound 1155]
418 nM

Using rat maltase (partially purified alpha-glucosidase from intestinal rat powder) as the test system, report measured IC50 of COc1cc(NCCc2ccc(CCN3C[C@H](O)[C@@H](O)[C@H](O)[C@H]3CO)cc2)cc(-c2noc(C3CCC3)n2)c1 [Compound 1120] .
186 nM

Supply IC50 measured with rat maltase (partially purified alpha-glucosidase from intestinal rat powder) for OC[C@@H]1[C@@H](O)[C@H](O)[C@@H](O)CN1CCCCCCNc1cc(-c2ncccn2)cc(C(F)(F)F)c1 [Compound 1131] .
8 nM

* * *

measured-on: recombinant alpha-glucosidase II (murine full-length glucosidase II, alpha and beta subunits, Glu 2) (Mus musculus)
Construct: made in house; host or cells: HEK-293T cells transduced with BacMam viruses (75% alpha, 25% beta); protein harvested from culture supernatant
Sequence (O08795 15-521): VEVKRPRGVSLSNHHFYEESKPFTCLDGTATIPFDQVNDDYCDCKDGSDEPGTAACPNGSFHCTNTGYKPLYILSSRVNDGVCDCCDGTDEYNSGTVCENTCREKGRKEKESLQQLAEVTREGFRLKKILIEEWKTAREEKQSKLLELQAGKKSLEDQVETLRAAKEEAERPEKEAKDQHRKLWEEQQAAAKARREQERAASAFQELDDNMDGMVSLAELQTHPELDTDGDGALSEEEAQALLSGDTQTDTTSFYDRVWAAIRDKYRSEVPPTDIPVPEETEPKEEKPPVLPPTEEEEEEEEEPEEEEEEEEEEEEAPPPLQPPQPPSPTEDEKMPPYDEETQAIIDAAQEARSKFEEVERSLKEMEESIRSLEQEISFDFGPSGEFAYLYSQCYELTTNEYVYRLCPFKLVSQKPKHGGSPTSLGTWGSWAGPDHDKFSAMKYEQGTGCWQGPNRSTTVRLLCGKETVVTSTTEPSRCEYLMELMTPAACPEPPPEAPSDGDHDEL
Sequence (Q8BHN3 33-944): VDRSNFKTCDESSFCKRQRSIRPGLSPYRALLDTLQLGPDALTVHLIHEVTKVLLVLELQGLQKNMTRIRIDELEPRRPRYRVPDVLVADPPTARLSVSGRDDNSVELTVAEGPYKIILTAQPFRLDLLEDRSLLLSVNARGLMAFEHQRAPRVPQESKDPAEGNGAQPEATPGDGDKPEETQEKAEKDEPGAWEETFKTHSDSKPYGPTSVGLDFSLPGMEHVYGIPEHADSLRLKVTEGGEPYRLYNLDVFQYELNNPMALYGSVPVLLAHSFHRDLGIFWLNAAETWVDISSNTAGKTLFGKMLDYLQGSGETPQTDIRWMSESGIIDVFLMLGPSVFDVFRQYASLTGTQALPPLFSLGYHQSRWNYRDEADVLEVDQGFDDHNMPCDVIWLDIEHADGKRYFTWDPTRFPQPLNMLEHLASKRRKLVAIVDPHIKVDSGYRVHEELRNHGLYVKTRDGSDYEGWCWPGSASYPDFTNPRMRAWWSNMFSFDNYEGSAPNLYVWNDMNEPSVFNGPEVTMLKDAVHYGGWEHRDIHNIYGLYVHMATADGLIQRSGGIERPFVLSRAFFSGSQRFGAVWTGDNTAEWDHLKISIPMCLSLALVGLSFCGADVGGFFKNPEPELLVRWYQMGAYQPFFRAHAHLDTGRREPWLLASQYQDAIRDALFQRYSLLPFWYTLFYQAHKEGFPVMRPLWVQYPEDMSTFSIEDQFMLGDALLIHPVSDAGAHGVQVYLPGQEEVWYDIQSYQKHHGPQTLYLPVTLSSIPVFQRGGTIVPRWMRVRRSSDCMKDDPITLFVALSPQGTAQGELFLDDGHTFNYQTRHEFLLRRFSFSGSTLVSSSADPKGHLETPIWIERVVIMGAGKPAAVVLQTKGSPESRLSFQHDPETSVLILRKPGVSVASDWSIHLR
test-method-notes: Alpha-glucosidase II assay (4-methylumbelliferyl-alpha-D-pyranoside substrate, fluorescence)
Type: biochemical
conditions-used: Glucosidase 2; read-out: Glu2 IC50
parameter-measured: pIC50
# pIC50: negative log10 of molar concentration; output just the value

Below: 3 compounds and their reported pIC50.
| compound | pIC50 |
| --- | --- |
| O=C(O)c1cc(NCCCCCCN2C[C@H](O)[C@@H](O)[C@H](O)[C@H]2CO)cc(-c2ncccn2)c1 [Compound 1118] | 8.30 |
| Cc1cc(NCc2ccc(CN3C[C@H](O)[C@@H](O)[C@H](O)[C@H]3CO)cc2)cc(-c2ncco2)c1 [Compound 1315] | 6.04 |
| N#CCc1ccc(NCCCCCCN2C[C@H](O)[C@@H](O)[C@H](O)[C@H]2CO)c([N+](=O)[O-])c1 [Compound 1299] | 7.77 |

Tell me its pIC50 given N#Cc1cc(Br)cc(NCc2cccc(CN3C[C@H](O)[C@@H](O)[C@H](O)[C@H]3CO)c2)c1 [Compound 1023] as the entry.
4.37

* * *

# pIC50 values compiled below
measured-on: rat maltase (partially purified alpha-glucosidase from intestinal rat powder)
test-method-notes: Intestinal alpha-glucosidase assay, maltose substrate (Glucose GO Kit)
Please treat pIC50 as minus the base-10 logarithm of the molar concentration.

Worked set:
| chemical-smiles | pIC50 |
| --- | --- |
| NC(=O)CCN(CCNc1ccc(-c2ncccn2)cc1[N+](=O)[O-])CCN1C[C@H](O)[C@@H](O)[C@H](O)[C@H]1CO | 5.33 |
| C[C@@H]1CN(c2ccc(NCc3ccc(CN4C[C@H](O)[C@@H](O)[C@H](O)[C@H]4CO)cc3)c([N+](=O)[O-])c2)C[C@H](C)O1 | 8.22 |
| OC[C@@H]1[C@@H](O)[C@H](O)[C@@H](O)CN1Cc1ccc(CNc2ccc(Br)cc2)cc1 | 7.96 |
| CN(C)Cc1ccc(NCCCCCCN2C[C@H](O)[C@@H](O)[C@H](O)[C@H]2CO)c(C(=O)O)c1 | 7.49 |
| CC(=O)Nc1cc(NCCCCCCN2C[C@H](O)[C@@H](O)[C@H](O)[C@H]2CO)cc(-c2ncccn2)c1 | 7.82 |

As a next step, examine the compound that follows.
Return value of pIC50 for input OC[C@@H]1[C@@H](O)[C@H](O)[C@@H](O)CN1Cc1ccc(CNc2cc(C3CC3)cc(N3CCOCC3)c2)cc1 , no commentary.
7.92
